Each entry below lists one item and its recorded Response (%) OX1R value.
# tested.target: human OX1R (Homo sapiens)
# Construct: expressed in transfected cells; host or cells: CHO (Chinese hamster ovary) cells, line CHOOX1R, co-expressing NFAT-luciferase
# Sequence (O43613 1-425): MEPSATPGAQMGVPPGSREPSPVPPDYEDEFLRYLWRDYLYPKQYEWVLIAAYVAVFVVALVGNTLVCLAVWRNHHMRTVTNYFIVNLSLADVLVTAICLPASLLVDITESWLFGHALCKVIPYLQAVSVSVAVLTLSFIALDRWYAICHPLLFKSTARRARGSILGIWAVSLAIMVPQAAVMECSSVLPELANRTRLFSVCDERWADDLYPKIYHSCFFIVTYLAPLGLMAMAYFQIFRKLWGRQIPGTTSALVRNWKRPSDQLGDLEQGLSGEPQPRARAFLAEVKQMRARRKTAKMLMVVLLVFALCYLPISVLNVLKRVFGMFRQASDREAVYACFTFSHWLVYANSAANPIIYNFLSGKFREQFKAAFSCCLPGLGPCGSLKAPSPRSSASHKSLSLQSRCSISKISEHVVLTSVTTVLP
# test.name: Agonist activity against OX1R: intracellular calcium (Fura-2AM, FDSS7000) in CHOOX1R cells
# Format: cell-based
# experimental.context: 10 μM test compound; relative to orexin-A as full agonist (100%)

COc1ccc(-c2cccc(C(=O)N(C)C)c2)cc1S(=O)(=O)Nc1cccc(NC(=O)Nc2ccccc2N(C)C)c1; <5%
COc1ccc(-c2cccc(C(=O)N(C)C)c2)cc1S(=O)(=O)Nc1cccc(Nc2cccc(C(F)(F)F)c2)c1; <5%
COc1ccccc1Nc1cccc(NS(=O)(=O)c2cc(-c3cccc(C(=O)N(C)C)c3)ccc2OC)c1; <5%

Moving on to another compound below.
Form field Response (%) OX1R, entry COc1ccc(-c2cccc(C(=O)N(C)C)c2)cc1S(=O)(=O)Nc1cccc(NC(=O)Nc2ccc(Br)cc2)c1 : <5%
